- assayed_system: c-Kit(V654A) (Homo sapiens, UniProt P10721, V654A)
- Construct: amino acids 544-end containing the V654A mutation; GST (N)
- Sequence (P10721 544-976 V654A): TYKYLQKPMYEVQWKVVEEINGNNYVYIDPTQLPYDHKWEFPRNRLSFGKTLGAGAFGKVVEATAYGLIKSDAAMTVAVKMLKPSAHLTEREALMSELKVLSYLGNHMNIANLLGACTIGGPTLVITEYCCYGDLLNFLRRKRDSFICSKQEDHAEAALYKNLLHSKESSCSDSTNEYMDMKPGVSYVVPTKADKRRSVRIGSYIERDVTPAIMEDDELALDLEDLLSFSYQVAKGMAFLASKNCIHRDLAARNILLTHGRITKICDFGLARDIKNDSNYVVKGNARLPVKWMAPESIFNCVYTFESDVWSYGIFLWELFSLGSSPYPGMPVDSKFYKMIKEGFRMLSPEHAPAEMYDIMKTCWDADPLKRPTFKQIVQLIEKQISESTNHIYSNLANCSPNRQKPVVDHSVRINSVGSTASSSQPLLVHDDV
- run_description: c-Kit(V654A) assay
- conditions_used: recombinant human c-Kit aa 544-end, 200 μM ATP, 1.4E-06 means 1.4×10^−6, read-out: Inhibition (IC50) of c-KIT (V654A)
endpoint_name: IC50 (nM)

These solved cases illustrate the format of a correct answer.
> print(dat)
                                   compound  units.text  quantitative.result
1  O=C(c1ccc(-n2cc(-c3cc4cccc(F)c4[nH]c3=O)nn2)cc1)N1CCNCC1 [A120]          nM                  280
2  O=C(c1ccc(-n2cc(-c3cc4ccc(C(F)(F)F)cc4[nH]c3=O)nn2)cc1)N1CCNCC1 [A142]          nM                  280
3  O=c1[nH]c2ccncc2cc1-c1cnn(-c2ccccc2)c1 [A46]          nM                  370
4  COc1ccc(-n2cc(-c3cc4ccccc4[nH]c3=O)nn2)cc1 [A10]          nM                   82
5  COCCO[C@@H]1CCN(C(=O)c2ccc(-n3cc(-c4cc5cc(Cl)ccc5[nH]c4=O)nn3)cc2)C1 [A260]          nM                   51

[1] CN(C)C(=O)c1ccc(-n2cc(-c3cc4cc(F)ccc4[nH]c3=O)nn2)cc1 [A18]
[2] O=C(c1ccc(-n2cc(-c3cc4cc(F)ccc4[nH]c3=O)nn2)cc1)N1CCCC1 [A273]
[3] COCCOC[C@H]1CCN(C(=O)c2ccc(-n3cc(-c4cc5cc(F)c(F)cc5[nH]c4=O)nn3)cc2)C1 [A233]
Arrange by IC50, high to low. Form entry: labels listed in requested order.
3, 2, 1

[I] O=C(c1ccc(-n2cc(-c3cc4cc(F)ccc4[nH]c3=O)nn2)cc1)N1CCC2(CC1)COC2 [A229]
[II] NC(=O)[C@H]1CCCN1C(=O)c1ccc(-n2cc(-c3cc4cc(F)ccc4[nH]c3=O)nn2)cc1 [A262]
Short answer wanted: higher IC50, I or II ? Refer to your chosen item by its label in the answer.
II
(II: 94 nM, I: 41 nM)
